assay: basal S. cerevisiae growth modulation, no modifier, primary screen, OD600, strain BY4716, 24 h, basal condition (AID 1173); conditions: OD600, 24 h, higher = more signal, called active from +8 up or from −8 down
// 0.0 strictly below -0.2 in z-score; 1.0 otherwise

Molecule: CCCN1C(=O)[C@@]2(CCC(=O)OC(C)(C)C)N=C(c3ccc(OCCCO)cc3)O[C@H]2c2ccccc21
Label Class: 0.0
//
Molecule: CCN(CC)c1ccc(N2CC=CC34O[C@@H]5/C=C\CCCOC(=O)C5[C@H]3C(=O)N(C(CO)C(C)C)[C@@H]4C2=O)cc1 (stereo partly specified)
Label Class: 1.0
//
Molecule: COc1ccc([Si](C)(C)[C@@H]2[C@@H](CCn3cc([C@H](O)c4ccccc4)nn3)O[C@]3(C(=O)N(Cc4ccc(N5C(=O)c6cccc7cccc5c67)cc4)c4ccccc43)[C@H]2C)cc1
Label Class: 0.0
//
Molecule: COCCOC(=O)N1C(=O)[C@@]2(c3cc(C#CCNC(N)=O)ccc31)[C@H](C(=O)N1CCN(c3ncccn3)CC1)[C@H]1C(=O)O[C@H](c3ccccc3)[C@H](c3ccccc3)N1[C@@H]2c1ccccc1OCCO
Label Class: 1.0
//
Molecule: COc1ccc(CCNC(=O)[C@@H]2c3ccccc3C(=O)N(Cc3ccc(OC(F)(F)F)cc3)[C@H]2c2ccc(CO)cc2)cc1
Label Class: 0.0
//
Molecule: COc1ccccc1CN1C(=O)c2ccccc2[C@@H](C(=O)NCCN2CCOCC2)[C@@H]1c1ccc(CO)cc1
Label Class: 0.0

###

composite z-score listing for selected molecules.
experiment: binders from COS7 lysate, DM2A8 probe, primary screen, torsin A project, cell lysate, small-molecule microarray, fluorescence 635/667 (AID 1065); conditions: higher = more signal, COS7 lysate expressing mutant human TOR1A
Test Readout: composite z-score

Molecule: O=C1O[C@@H](c2ccccc2)[C@@H](c2ccccc2)N2[C@@H](c3ccc(O)cc3)[C@]3(C(=O)Nc4ccc(C#CC5=CCCCC5)cc43)[C@@H](C(=O)O)[C@H]12
Test Readout: composite z-score
Measured Value: 1.56
--
Molecule: CCOC(=O)C[C@H]1[C@H](OC(=O)c2ccc(-c3ccccc3)cc2)[C@@H](NC(=O)c2ccc3ccccc3c2)c2cc(OCCCO)ccc2N1C(=O)Cc1ccc(OC)cc1
Test Readout: composite z-score
Measured Value: 0.228
--
Molecule: N#Cc1ccc(NN2C(C(O)c3cccs3)C=CC3C(=O)N(c4ccccc4)C(=O)C32)cc1 (configuration not stated)
Test Readout: composite z-score
Measured Value: 0.145
--
Molecule: CC(C)c1ccc(NN2C(C(O)c3c(F)cccc3Cl)C=CC3C(=O)N(c4ccccc4)C(=O)C32)cc1 (configuration not stated)
Test Readout: composite z-score
Measured Value: 0.177
--
Molecule: CC(C)C[C@@H]1NC(=O)[C@H]2C[C@@H](C(=O)NCCCCCCNC(=O)CS)[C@@H](c3cccc(OCCO)c3)N2C1=O
Test Readout: composite z-score
Measured Value: 0.0281
--
Molecule: CCOC(=O)C[C@H]1[C@H](OC(=O)Cc2ccc3c(c2)OCO3)[C@@H](NC(=O)c2ccc(-c3ccccc3)cc2)c2cc(OCCCO)ccc2N1C(=O)c1ccccc1
Test Readout: composite z-score
Measured Value: -0.0093
--
Molecule: O=C(O)[C@@]1(Cc2ccccc2)N=C(c2ccc(OCCCO)cc2)O[C@H]1c1ccccc1
Test Readout: composite z-score
Measured Value: -0.647

Origin of measurements: PubChem BioAssay
